Data origin, for the record: patent US20140322233A1

Target: T1, human GCC, full length with myc tag (293-GCC#2 cells) (human, UniProt P25092 24-1073)
T1 construct: not shown: myc tag
T1 sequence (P25092 24-1073): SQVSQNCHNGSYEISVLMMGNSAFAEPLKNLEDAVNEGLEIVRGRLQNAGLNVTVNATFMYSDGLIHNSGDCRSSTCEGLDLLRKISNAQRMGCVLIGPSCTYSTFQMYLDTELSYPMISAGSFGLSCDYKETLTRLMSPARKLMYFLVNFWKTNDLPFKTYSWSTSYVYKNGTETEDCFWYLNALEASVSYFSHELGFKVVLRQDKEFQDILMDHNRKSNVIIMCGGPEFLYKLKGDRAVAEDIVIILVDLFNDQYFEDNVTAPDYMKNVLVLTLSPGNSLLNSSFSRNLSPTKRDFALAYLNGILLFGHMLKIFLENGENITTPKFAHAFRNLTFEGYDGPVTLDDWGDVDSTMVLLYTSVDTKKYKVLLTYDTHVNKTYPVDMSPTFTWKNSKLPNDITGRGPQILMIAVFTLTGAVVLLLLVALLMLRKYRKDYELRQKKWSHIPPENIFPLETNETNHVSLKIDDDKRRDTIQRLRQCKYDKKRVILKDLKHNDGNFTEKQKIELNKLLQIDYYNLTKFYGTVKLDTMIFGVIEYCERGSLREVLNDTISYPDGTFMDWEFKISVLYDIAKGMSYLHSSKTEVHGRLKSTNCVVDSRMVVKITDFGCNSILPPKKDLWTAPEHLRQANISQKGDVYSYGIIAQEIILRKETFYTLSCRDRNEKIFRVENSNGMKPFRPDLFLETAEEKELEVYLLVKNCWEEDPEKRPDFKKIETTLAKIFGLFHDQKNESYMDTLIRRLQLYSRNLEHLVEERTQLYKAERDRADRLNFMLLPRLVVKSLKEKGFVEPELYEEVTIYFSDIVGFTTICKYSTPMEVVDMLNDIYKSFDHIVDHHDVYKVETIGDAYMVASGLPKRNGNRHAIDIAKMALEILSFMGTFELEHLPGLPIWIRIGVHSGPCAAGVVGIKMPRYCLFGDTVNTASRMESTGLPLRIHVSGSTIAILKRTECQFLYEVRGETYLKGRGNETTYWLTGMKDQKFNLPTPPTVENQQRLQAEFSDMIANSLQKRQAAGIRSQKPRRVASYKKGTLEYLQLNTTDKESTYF
Assay: indirect immunofluorescence flow cytometry, 293 GCC #2 cells;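 further: cells exposed to the test antibodies for 1 h on ice before flow cytometric readout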
measurementLabel: MFI at 0.016 µg/ml
Numbers only.

binder | measurementLabel | number
5F9-mc-MMAF (antibody, V domains shown, mc-MMAF drug-linker on reduced interchain cysteines of the antibody; positions not given, Antibody drug conjugate of 5F9; average loading about four) VH: QVQLQQWGAGLLKPSETLSLTCAVFGGSFSGYYWSWIRQPPGKGLEWIGEINHRGNTNDNPSLKSRVTISVDTSKNQFALKLSSVTAADTAVYYCARERGYTYGNFDHWGQGTLVTVSS VL: EIVMTQSPATLSVSPGERATLSCRASQSVSRNLAWYQQKPGQAPRLLIYGASTRATGIPARFSGSGSGTEFTLTIGSLQSEDFAVYYCQQYKTWPRTFGQGTNVEIK | MFI at 0.016 µg/ml | 2110
mAb 5F9 (antibody, V domains shown, Human; hybridoma product is IgG2, kappa; also called 46.5F9.8.2; Prep A 5F9) VH: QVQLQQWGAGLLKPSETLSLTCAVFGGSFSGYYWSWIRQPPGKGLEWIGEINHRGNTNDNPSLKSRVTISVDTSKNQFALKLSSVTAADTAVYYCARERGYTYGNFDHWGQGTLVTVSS VL: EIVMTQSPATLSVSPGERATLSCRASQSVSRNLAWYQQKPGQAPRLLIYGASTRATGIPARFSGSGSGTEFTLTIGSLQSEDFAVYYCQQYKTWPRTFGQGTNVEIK | MFI at 0.016 µg/ml | 2460
5F9-vc-MMAF (antibody, V domains shown, mc-vc-MMAF drug-linker on reduced interchain cysteines of the antibody; positions not given, Antibody drug conjugate of 5F9; average loading about four) VH: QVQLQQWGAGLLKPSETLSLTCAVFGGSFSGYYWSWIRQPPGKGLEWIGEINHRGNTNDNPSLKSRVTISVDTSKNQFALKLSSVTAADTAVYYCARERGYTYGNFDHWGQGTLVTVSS VL: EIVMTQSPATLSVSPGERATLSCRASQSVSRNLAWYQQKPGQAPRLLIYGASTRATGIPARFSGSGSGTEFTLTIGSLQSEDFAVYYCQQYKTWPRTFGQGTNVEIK | MFI at 0.016 µg/ml | 1500

Prompt: Fill in: MFI at 0.016 µg/ml of 5F9-vc-MMAE (antibody, V domains shown, mc-vc-MMAE drug-linker on reduced interchain cysteines of the antibody; positions not given, Antibody drug conjugate of 5F9) VH: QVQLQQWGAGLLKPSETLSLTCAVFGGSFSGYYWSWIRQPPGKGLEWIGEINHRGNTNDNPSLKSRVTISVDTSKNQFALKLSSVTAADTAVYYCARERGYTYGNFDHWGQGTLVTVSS VL: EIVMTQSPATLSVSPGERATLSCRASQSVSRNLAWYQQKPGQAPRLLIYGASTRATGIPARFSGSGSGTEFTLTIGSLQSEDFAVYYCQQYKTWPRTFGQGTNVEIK is ___
Response: 1790
